Where these numbers come from: PubChem BioAssay (NCATS)

System: Hepatitis C virus NS3/4A protease
Test: Selectivity profile for inhibitors of NSP2Pro chikungunya virus (CHIKV): NS34A-HCV Counterscreen (AID 1964106); further: nearly all actives have a fitted effect of over 55% in size
Details: HCV NS3/4A protease biochemical counterscreen; series mostly up to 50.9 µM
The other results are listed elsewhere or left out. Results filed as inconclusive are left out. Activity calls are given as the source filed them. The call rests on the fitted dose curve.
Respond with a class label; see active, inactive

CCOc1ccc(N(Cc2ccccc2)C(=O)c2nc(S(C)(=O)=O)ncc2Cl)cc1 :: inactive
O=C(O)c1cccc(-n2[nH]c(-c3ccccc3)cc2=O)c1 :: inactive
COC([CH2][Hg])CNC(=O)c1ccccc1OCC(=O)O (centres undefined) :: active

Proceed to the following item.
Asked: Status in this test for "Cc1c(S(=O)(=O)O)oc2c1C(=O)C(=O)c1c-2ccc2c1CCCC2(C)C" ?
Given back: inactive
